So I've got a bunch of compounds here, and I need their normalised LDH release values.
assay: protection against mutant huntingtin cytotoxicity, PC12 cells, LDH release (AID 1610); conditions: PC12 mutant huntingtin toxicity, final LDH at 4 uM, stronger effect = lower value
Records with an inconclusive call do not appear.
// return a plain number; no unit text

Briefly, normalised LDH release measured for COc1ccc(C[C@H](N)C(=O)N[C@@H]2[C@@H](CO)OC(n3cnc4c(N(C)C)ncnc43)[C@@H]2O)cc1 (stereo partly specified) : 1

Looking up CC(C)CC1C(=O)N2CCC[C@H]2C2(O)O[C@](NC(=O)C3C=C4c5cccc6[nH]c(Br)c(c56)C[C@H]4N(C)C3)(C(C)C)C(=O)N12 (stereo partly specified) , I found its normalised LDH release recorded as 0.995

normalised LDH release reading for CC(=O)OCC(=O)[C@@]1(O)[C@H](C)CC2C3CCC4=CC(=O)C=C[C@]4(C)[C@@]3(F)[C@@H](O)C[C@@]21C (stereo partly specified) : 0.545

So for "NCCCCNCCCN" , the logged normalised LDH release turned out to be 0.936

Entry under test: "CO/N=C(/C(=O)N[C@@H]1C(=O)N2C(C(=O)O)=C(COC(C)=O)CS[C@H]12)c1csc(N)n1" . Its normalised LDH release was 0.958

Measured normalised LDH release of "CCCCC[C@H](CC(=O)NO)C(=O)N[C@H](C(=O)N1CCC[C@H]1CO)C(C)C" : 1.19

----------
experiment: ovarian cancer cell viability with rucaparib, profiling panel, oncology-focused library, rucaparib conditional (AID 1508598); conditions: patient-derived ovarian cancer cells, CellTiter-Glo viability, 144 h; at 0.00122 µM; OCI-P5x cells; without rucaparib; stronger effect = lower value
Observation Type: viability (%)
Answer format: numeric, % implied, no suffix.

// sample CC(NC(=O)c1ccccc1N=Cc1c(O)ccc2ccccc12)c1ccccc1 (centres undefined) , its viability was 95.7

The compound listed as "CC(C)c1onc(-c2c(Cl)cccc2Cl)c1COc1ccc(/C=C/c2cccc(C(=O)O)c2)c(Cl)c1" has a reported viability of 89.4

Reported viability for "O=c1[nH]c(-c2ccc(C(F)(F)F)cc2)nc2c1CSCC2" was 106

Data point: "Nc1nc(Cl)nc2c1ncn2[C@H]1C[C@H](O)[C@@H](CO)O1" ; viability = 110

Memo: "O=C(O)c1ccc(-c2c[nH]c3ncc(-c4ccccc4)cc23)cc1C1CCCC1" , reported viability: 99.6

Measured viability of "NC(=O)Nc1sc(-c2ccc(F)cc2)cc1C(N)=O" : 106

Measured viability, "Nc1nc(F)nc2c1ncn2[C@@H]1O[C@H](COP(=O)(O)O)[C@@H](O)[C@@H]1O" : 109

Consider CS(=O)c1ccc(-c2nc(-c3ccc(F)cc3)c(-c3ccncc3)[nH]2)cc1 (centres undefined) . Its measured viability is 107

get_value(item= "O=C(O)Cc1cccc(OCCCN(Cc2cccc(C(F)(F)F)c2Cl)CC(c2ccccc2)c2ccccc2)c1" , readout=viability) returns 95.8

----------
experiment: differential killing of epithelial or mesenchymal cells, primary screen, imaging, PC-3E GFP, TEM4-18 mCherry, co-culture (AID 1345086); conditions: imaging cell counts, measured here: epithelial PC-3E GFP cell survival, at 1 µM;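 also: cells exposed to compound for 72 h before imaging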
Kindly state normalised cell number for each of the entries shown.

Entry C[C@H]1CC2C3CCC4=CC(=O)C=C[C@]4(C)[C@@]3(F)[C@@H](O)C[C@]2(C)[C@@]1(O)C(=O)COP(=O)(O)O (stereo partly specified) , normalised cell number reported as 1.37

Lab book: normalised cell number of "C[C@@H]1C[C@@H](O)[C@@H](O)CO1" noted as 0.91

For this molecule ( NCC1CCCCC1CC(=O)O (stereo unspecified) ), measured normalised cell number is 1.27

Notebook: "NC(N)=N/N=C\c1c(Cl)cccc1Cl" , normalised cell number read as 1.05

Briefly, normalised cell number measured for CC(=O)[C@H]1CCC2C3C[C@H](C)C4=CC(=O)CC[C@]4(C)C3[C@@H](O)C[C@@]21C (stereo partly specified) : 1.12

Looking up "Cc1ccc(S(=O)(=O)NCl)cc1" , I found its normalised cell number recorded as 0.97

Per the record, CO[C@@]12[C@@H]3NC3CN1C1=C(C(=O)C(N)=C(C)C1=O)[C@@H]2COC(N)=O (stereo partly specified) has normalised cell number of 1.03

// normalised cell number value for CCC(NC(C)C)C(O)c1ccc(O)c(O)c1 (stereo unspecified) : 0.9

So for CCN1CC(CCN2CCOCC2)C(C(c2ccccc2)c2ccccc2)C1=O (stereo unspecified) , the logged normalised cell number turned out to be 1.12

Value of normalised cell number reported for the molecule "CC(C)Nc1ncccn1" is 1.16

Measured normalised cell number, O=C1C[C@@H](O)[C@]23Oc4ccc(O)c5c4[C@](Oc4cccc1c42)(O3)C1O[C@@H]1[C@H]5O (stereo partly specified) : 1.1

----------
biological target: L-lactate dehydrogenase (Plasmodium falciparum (isolate CDC / Honduras)) (UniProt Q27743); test: PfLDH activity inhibition – cell lysate, 3D7 strain, counter-screen for P. falciparum growth inhibition project (AID 2304);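 also: 0% = vehicle and 100% = reference inhibitor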; settings: P. falciparum 3D7 crude extract, LDH APAD/NBT absorbance; at 2 µM; stronger effect = higher value
Sequence (Q27743 whole entry, looked up): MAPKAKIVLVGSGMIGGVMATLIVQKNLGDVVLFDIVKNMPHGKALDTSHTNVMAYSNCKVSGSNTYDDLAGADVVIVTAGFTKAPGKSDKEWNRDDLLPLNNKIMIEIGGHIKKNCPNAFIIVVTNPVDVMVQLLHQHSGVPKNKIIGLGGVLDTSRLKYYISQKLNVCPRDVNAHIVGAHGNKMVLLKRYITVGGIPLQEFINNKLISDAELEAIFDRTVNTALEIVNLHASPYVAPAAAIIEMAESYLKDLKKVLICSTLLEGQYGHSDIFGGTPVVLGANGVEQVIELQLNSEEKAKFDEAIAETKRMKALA
Observation Type: inhibition (%)
Entry rule: numbers only, all in %.

So the reported inhibition for "O=C(Nc1nccs1)c1cc(-c2cccnc2)nc2ccc(Br)cc12" , on L-lactate dehydrogenase (Plasmodium falciparum (isolate CDC / Honduras)) (UniProt Q27743), turned out to be 5

Assay L-lactate dehydrogenase (Plasmodium falciparum (isolate CDC / Honduras)) (UniProt Q27743), sample "Oc1ccc(CNCC2CCN(CC3CCCCC3)CC2)cc1" , inhibition read: -1

Param item: "CNCC(C)(C)c1nc(-c2ccc(Cl)c(O)c2)c(-c2ccncc2)[nH]1" ; param system: L-lactate dehydrogenase (Plasmodium falciparum (isolate CDC / Honduras)) (UniProt Q27743); output inhibition: -2

The observed inhibition for "COc1ccc(NC(=O)c2ccc(-c3cccc(OCc4ccccc4)c3)cc2)cc1N1CCN(C)CC1" when tested with L-lactate dehydrogenase (Plasmodium falciparum (isolate CDC / Honduras)) (UniProt Q27743) stands at -1

L-lactate dehydrogenase (Plasmodium falciparum (isolate CDC / Honduras)) (UniProt Q27743) assay, compound "Cc1c2ccncc2c(C)c2c1[nH]c1cc(Cc3ccccc3)c(O)cc12" , recorded inhibition = -4

Let me check: "CCc1ccc(NC(=O)C=NN=C(N)N)cc1" , system L-lactate dehydrogenase (Plasmodium falciparum (isolate CDC / Honduras)) (UniProt Q27743), measured inhibition is -2

inhibition value, target or system L-lactate dehydrogenase (Plasmodium falciparum (isolate CDC / Honduras)) (UniProt Q27743), for "O=C(NCCN1CCCC1)c1cccc(-c2ccc(-c3nc4ccc(C(F)(F)F)cc4[nH]3)cc2)c1" : -3

Let me check: "Fc1cccc(CNc2ncc(-c3ccsc3)c(-c3nccs3)n2)c1" , system L-lactate dehydrogenase (Plasmodium falciparum (isolate CDC / Honduras)) (UniProt Q27743), measured inhibition is 0

inhibition of "CCOc1cc(C)ccc1C1CCN(CCCCNC(=O)c2cccc(-c3ccc(C(F)(F)F)cc3)c2)CC1" , assay on L-lactate dehydrogenase (Plasmodium falciparum (isolate CDC / Honduras)) (UniProt Q27743), is 2

The observed inhibition for CC(CCNc1c2ccccc2nc2ccccc12)N1CCN(C)CC1 (stereo unspecified) when tested with L-lactate dehydrogenase (Plasmodium falciparum (isolate CDC / Honduras)) (UniProt Q27743) stands at 5

With L-lactate dehydrogenase (Plasmodium falciparum (isolate CDC / Honduras)) (UniProt Q27743) as the test system, "CC(C)Cc1csc(NC(=O)C=Cc2ccco2)c1C(=O)O" showed inhibition of -2

----------
test: modulation of C. elegans fzo-1 (AID 1259413);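 also: fzo-1 mutant C. elegans worms in liquid wells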; settings: C. elegans fzo-1 modulator screen, mean read-out; stronger effect = higher value
Observation Type: mean signal
Number only, no unit.

Looking up "Cc1c(O)c(=O)ccn1C" , I found its mean signal recorded as 235

Item: "CCC(C)(C)N=C(NC#N)Nc1cccnc1" | mean signal: 201

Reported mean signal for "CO/N=C(/C(=O)N[C@@H]1C(=O)N2C(C(=O)O)=C(COC(N)=O)CS[C@H]12)c1ccco1" was 235

For record CC1(C)SC2C(NC(=O)Cc3ccccc3)C(=O)N2C1C(=O)O (centres undefined) the listed mean signal is 247

The recorded mean signal for entry CC(C(O)c1ccc(O)cc1)N1CCC(Cc2ccccc2)CC1 (centres undefined) equals 233

In plain terms, C#C[C@]1(O)CC[C@H]2[C@@H]3CCC4=CC(=O)CC[C@@H]4[C@H]3CCC21C (some centres undefined) has a documented mean signal of 236

For reference, reported mean signal for "CC/C(=C(/c1ccccc1)c1ccc(OCCN(C)C)cc1)c1ccccc1" stands at 234

Sample CC(C)(S)C(N)C(=O)O (centres undefined) ; mean signal observed: 224

// sample "Nc1ccn([C@@H]2CS[C@H](CO)O2)c(=O)n1" , its mean signal was 246

Entry "CC(=O)NCCCCCCNC(C)=O" ; mean signal = 268

GET /value?item= CN(C)c1ccc(O)c2c1C[C@H]1C[C@H]3[C@H](N(C)C)C(=O)C(C(N)=O)=C(O)C3(O)C(=O)C1=C2O (some centres undefined) &field=mean signal returns 263

Reported mean signal of "CN(C)CCOc1ccc(/C(=C(/CCCl)c2ccccc2)c2ccccc2)cc1" : 204

Entry CN1CCN2c3ncccc3Cc3ccccc3C2C1 (centres undefined) ; mean signal = 257

The reported mean signal of the compound CC(=O)O[C@]1(C(C)=O)CC[C@H]2[C@@H]3C=C(C)C4=CC(=O)CCC4(C)[C@H]3CCC21C (some centres undefined) was 261

Entry CC1=C(C/C=C(\C)CCCC(C)CCCC(C)CCCC(C)C)C(=O)c2ccccc2C1=O (centres undefined) , mean signal reported as 243

Note to self: mean signal recorded for CC(=O)OCC(=O)C12OC(C)(C)O[C@@H]1C[C@H]1[C@@H]3C[C@H](F)C4=CC(=O)C=CC4(C)[C@@]3(F)[C@@H](O)CC12C (some centres undefined) was 228

Input "CC(C)C[C@H](NC(=O)[C@@H](O)[C@H](N)Cc1ccccc1)C(=O)O" . Output mean signal: 255

GET /value?item= CN1[C@@H]2CC[C@H]1CC(OC(=O)C(CO)c1ccccc1)C2 (some centres undefined) &field=mean signal returns 274

Item: "CC(C)C[C@H](NC(=O)[C@@H](COC(C)(C)C)NC(=O)[C@H](Cc1ccc(O)cc1)NC(=O)[C@H](CO)NC(=O)[C@H](Cc1c[nH]c2ccccc12)NC(=O)[C@H](Cc1cnc[nH]1)NC(=O)[C@H]1CCC(=O)N1)C(=O)N[C@H](CCCN=C(N)N)C(=O)N1CCC[C@@H]1C(=O)NNC(N)=O" | mean signal: 236
